Kindly state half-life at 0.3 µM for each of the entries shown.
- assay explanation: Chemical stability of the compound in 0.01 M borate buffer assessed as half life at 300 nM and pH 9.0 by HPLC analysis
- Type: physicochemical
Don't forget the unit after the number, please.

Examples with their reported half-life at 0.3 µM follow.
O=C(NC12CC3CC(CC(C3)C1)C2)Oc1cccc(-c2ccccc2)c1 262 min
O=C(NC1CCCCC1)Oc1cccc(-c2ccccc2)c1 42.7 min

Here is the next item to consider.
The reported half-life at 0.3 µM of the compound O=C(NCCCCc1ccccc1)Oc1cccc(-c2ccccc2)c1 was 42 min

----------
- System: Liver
- assay explanation: Metabolic stability of the compound in Wistar rat liver S9 fraction assessed as half life at 1 uM by RP-HPLC analysis
- Type: ADME, subcellular
- condition context: s9, 1 µM
Under this convention, rule met denotes t1/2 strictly below 20 min and rule not met denotes t1/2 at or above 20 min.

Recorded results for 4 molecules are shown here.
O=C(NC1CCCC1)Oc1cccc(-c2ccccc2)c1 rule met
NC(=O)c1cccc(-c2cccc(OC(=O)NCCCCc3ccccc3)c2)c1 rule not met
O=C(NCc1ccccc1)Oc1cccc(-c2ccccc2)c1 rule met
O=C(NC1Cc2ccccc2C1)Oc1cccc(-c2ccccc2)c1 rule not met

Could you now consider this next molecule?
Task item: Given the entry O=C(NCCCCc1ccccc1)Oc1cccc(-c2ccccc2)c1 , would its reported t1/2 be below 20 min?
Reply: rule met

----------
Kindly state log10 of t1/2 for each of the entries shown.
- System: Liver
- assay explanation: Metabolic stability of the compound in Wistar rat liver S9 fraction assessed as half life at 1 uM by RP-HPLC analysis
- Type: ADME, subcellular
- condition context: s9, 1 µM
Values below are the log10 of the recorded t1/2, with min as the unit.

Examples with their reported log10 of t1/2 follow.
CNC(=O)Oc1cccc(-c2ccccc2)c1 0.87
CCCCCCNC(=O)Oc1cccc(-c2ccccc2)c1 0.90
CC(C)NC(=O)Oc1cccc(-c2ccccc2)c1 0.28

# map each compound to its log10 of t1/2
1. O=C(NCCCCCCc1ccccc1)Oc1cccc(-c2ccccc2)c1
2. NC(=O)c1cccc(-c2cccc(OC(=O)NCc3ccc4ccccc4c3)c2)c1
3. CCCCNC(=O)Oc1cccc(-c2ccccc2)c1
4. O=C(NCCc1ccccc1)Oc1cccc(-c2ccccc2)c1
5. O=C(NCC1CCCCC1)Oc1cccc(-c2ccccc2)c1

Reply:
1. 1.60
2. 1.59
3. 0.26
4. 0.43
5. 0.99

# map each compound to its log10 of t1/2
1. O=C(NC1CCC1)Oc1cccc(-c2ccccc2)c1
2. O=C(NCc1ccc2ccccc2c1)Oc1cccc(-c2ccccc2)c1
3. O=C(NCc1cccc2ccccc12)Oc1cccc(-c2ccccc2)c1
4. O=C(NCCCCCCN1CCOCC1)Oc1cccc(-c2ccccc2)c1

Reply:
1: 0.40; 2: 1.44; 3: 1.67; 4: 1.11

----------
- assay explanation: Metabolic stability of the compound in Wistar rat liver S9 fraction at 1 uM measured after 90 mins by RP-HPLC analysis
- Format: ADME, subcellular
- condition context: read-out: Stability
reported property: remaining at 1.5 h, 1 µM

The reported remaining at 1.5 h, 1 µM of the molecule O=C(NC12CC3CC(CC(C3)C1)C2)Oc1cccc(-c2ccccc2)c1 was 99.2%

----------
Kindly state half-life at 1 µM for each of the entries shown.
- assay explanation: Metabolic stability of the compound in Wistar rat liver S9 fraction assessed as half life at 1 uM by RP-HPLC analysis
- Assay type: ADME, subcellular
- condition context: Wistar, liver S9 fraction
One number for each entry, in min.

O=C(NC1CCCCC1)Oc1cccc(-c2ccccc2)c1 6

Here is the next item to consider.
The reported half-life at 1 µM of the compound NC(=O)c1cccc(-c2cccc(OC(=O)NC3CCCCC3)c2)c1 was 58.7

----------
Kindly state t1/2 for each of the entries shown.
- Test system: Plasma
- assay explanation: Metabolic stability of the compound in Wistar rat plasma assessed as half life at 1 uM by RP-HPLC analysis
- Type: ADME, cell-free
- condition context: 1 µM
Don't forget the unit after the number, please.

O=C(NCc1ccc2ccccc2c1)Oc1cccc(-c2ccccc2)c1 1 min

# map each compound to its t1/2
1. O=C(NC1Cc2ccccc2C1)Oc1cccc(-c2ccccc2)c1
2. NC(=O)c1cccc(-c2cccc(OC(=O)NCCCCc3ccccc3)c2)c1

Reply:
1. 16.5 min
2. 4.2 min

# map each compound to its t1/2
1. O=C(NCCc1ccccc1)Oc1cccc(-c2ccccc2)c1
2. CCCCCCNC(=O)Oc1cccc(-c2ccccc2)c1
3. O=C(NC12CC3CC(CC(C3)C1)C2)Oc1cccc(-c2ccccc2)c1

Reply:
1: 22.1 min; 2: 7.5 min; 3: 183.3 min

----------
- assay explanation: Chemical stability of the compound in 0.01 M PBS assessed as compound remaining at pH 7.4 by HPLC analysis
- condition context: buffer
reported property: Stability
Don't forget the unit after the number, please.

Examples with their reported Stability follow.
O=C(NCC1CCCCC1)Oc1cccc(-c2ccccc2)c1 65.4%
O=C(NCCCCCCc1ccccc1)Oc1cccc(-c2ccccc2)c1 61.1%
O=C(NCc1ccc2ccccc2c1)Oc1cccc(-c2ccccc2)c1 18.4%
O=C(NCc1cccc2ccccc12)Oc1cccc(-c2ccccc2)c1 24.8%
O=C(NCCc1ccccc1)Oc1cccc(-c2ccccc2)c1 34.9%
O=C(NC12CC3CC(CC(C3)C1)C2)Oc1cccc(-c2ccccc2)c1 66.7%

# map each molecule to its Stability
1. O=C(NCCCCCCN1CCOCC1)Oc1cccc(-c2ccccc2)c1
2. O=C(NC1CCCC1)Oc1cccc(-c2ccccc2)c1

Reply:
1: 30.9%; 2: 34.4%

----------
Kindly state Activity for each of the entries shown.
- Tested on: Liver
- assay explanation: Hydrolytic rate constant, log k of the compound in Wistar rat liver S9 fraction
- Assay type: ADME, subcellular
Answers are plain numbers.

O=C(NCc1ccccc1)Oc1cccc(-c2ccccc2)c1 -1.19
O=C(NC1CCCC1)Oc1cccc(-c2ccccc2)c1 -0.56
CC(C)NC(=O)Oc1cccc(-c2ccccc2)c1 -0.45
O=C(NCCCCCCN1CCOCC1)Oc1cccc(-c2ccccc2)c1 -1.27
O=C(NCc1cccc2ccccc12)Oc1cccc(-c2ccccc2)c1 -1.83

The reported Activity of the compound O=C(NC1CCCCC1)Oc1cccc(-c2ccccc2)c1 was -0.94

----------
- assay explanation: Chemical stability of the compound in 0.01 M borate buffer assessed as half life at pH 9.0 by HPLC analysis
- Type: physicochemical
- condition context: buffer
reported property: t1/2
Don't forget the unit after the number, please.

CCCCCCNC(=O)Oc1cccc(-c2ccccc2)c1 68.3 min

# map each compound to its t1/2
1. NC(=O)c1cccc(-c2cccc(OC(=O)NCc3ccc4ccccc4c3)c2)c1
2. O=C(NCc1ccccc1)Oc1cccc(-c2ccccc2)c1
3. O=C(NC1CCC1)Oc1cccc(-c2ccccc2)c1

Reply:
13.9 min
26.5 min
27.5 min

----------
Kindly state log10 t1/2 for each of the entries shown.
- Tested on: Plasma
- assay explanation: Metabolic stability of the compound in Wistar rat plasma assessed as half life at 1 uM by RP-HPLC analysis
- Format: ADME, cell-free
- condition context: 1 µM
Values below are the log10 of the recorded t1/2, with min as the unit.

Examples with their reported log10 t1/2 follow.
O=C(NCCCCCCN1CCOCC1)Oc1cccc(-c2ccccc2)c1 0.90
O=C(NCc1cccc2ccccc12)Oc1cccc(-c2ccccc2)c1 0.86

# map each compound to its log10 t1/2
1. NC(=O)c1cccc(-c2cccc(OC(=O)NCc3ccc4ccccc4c3)c2)c1
2. O=C(NCC1CCCCC1)Oc1cccc(-c2ccccc2)c1
3. O=C(NCc1ccccc1)Oc1cccc(-c2ccccc2)c1
4. CCCCNC(=O)Oc1cccc(-c2ccccc2)c1

Reply:
0.75
1.18
1.16
1.33

# map each compound to its log10 t1/2
1. O=C(NCCCCCCc1ccccc1)Oc1cccc(-c2ccccc2)c1
2. O=C(NC1CCCC1)Oc1cccc(-c2ccccc2)c1
3. CNC(=O)Oc1cccc(-c2ccccc2)c1

Reply:
1: 0.92; 2: 1.60; 3: 0.58

# map each compound to its log10 t1/2
1. O=C(NC1CCC1)Oc1cccc(-c2ccccc2)c1
2. O=C(NCCCCc1ccccc1)Oc1cccc(-c2ccccc2)c1
3. CC(C)NC(=O)Oc1cccc(-c2ccccc2)c1

Reply:
1.30
0.82
1.30

----------
- assay explanation: Chemical stability of the compound in 0.01 M borate buffer assessed as half life at 1 uM and pH 9.0 by HPLC analysis
- Type: physicochemical
Kindly state half-life at 1 µM for each of the entries shown.
Give bare numbers, in min.

Examples with their reported half-life at 1 µM follow.
O=C(NC1CCCCC1)Oc1cccc(-c2ccccc2)c1 40.4
O=C(NC12CC3CC(CC(C3)C1)C2)Oc1cccc(-c2ccccc2)c1 266

Here is the next item to consider.
The reported half-life at 1 µM of the molecule O=C(NCCCCc1ccccc1)Oc1cccc(-c2ccccc2)c1 was 43.1
